Data provenance: paper PMC10450164

- target entity: TFAP2A DBD-HSH WT (Homo sapiens, UniProt P05549 203-420)
- Sequence (P05549 203-420): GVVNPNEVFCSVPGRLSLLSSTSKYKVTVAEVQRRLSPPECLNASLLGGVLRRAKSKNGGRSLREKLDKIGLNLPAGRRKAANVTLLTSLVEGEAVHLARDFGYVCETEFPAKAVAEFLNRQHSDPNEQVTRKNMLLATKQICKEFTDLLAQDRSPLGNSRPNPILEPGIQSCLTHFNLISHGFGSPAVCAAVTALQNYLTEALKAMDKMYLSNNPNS
- assay text: ITC
Returns: string. Value is y if measured Kd is below 300 nM, and n if it is greater than or equal to it.

Bench note: check whether cCC/GGg (dsDNA) DNA 1: GTCCCCGAGGGAG DNA 2: CTCCCTCGGGGAC shows Kd below 300 nM
n
